Data provenance: patent US20210198277A1

Target: EHMT1 (Homo sapiens)
Assay: EHMT1 enzyme assay on peptide substrate (EHMT1 PEP)
Assay type: biochemical
Conditions: Table II; read-out: EHMT1 PEP (IC50 μM)
parameter: IC50

Item "COc1ccc(Nc2cccn3ncnc23)cc1OCCCN1CCCC1" with EHMT1 (Homo sapiens) - IC50?
> 10 µM

* * *

Target: EHMT1 (Homo sapiens)
Assay: EHMT1 enzyme assay on peptide substrate (EHMT1 PEP)
Format: biochemical
Details: read-out: EHMT1 PEP (IC50 μM)
parameter: IC50

> print(dat)
                         structure.notation  parameter  test.result
1  CNc1ccnc(Nc2cc(OCCCN3CCCC3)c3[nH]ncc3c2)n1       IC50      > 10 µM
2  COc1cc2c(C3CCN(C)CC3)nc(NC3CCCC3)nc2cc1OCCCN1CCCC1       IC50     < 0.1 µM
3  COc1cc2c(C3CCN(C)CC3)nc(N(C)C)nc2cc1OCCCN1CCCC1       IC50     < 0.1 µM

// lookup IC50 for "CNc1ccnc(Nc2ccc(OC)c(OCc3nnc(C4CC4)[nH]3)c2)n1"
> 10 µM

How about this compound: "CNc1cc(C)nc(Nc2ccc(OC)c(OCCCN(C)C3CCC3)c2)n1"
0.1 to 1 µM

* * *

Target: EHMT2 (Homo sapiens, UniProt Q96KQ7)
Construct: host or cells: MDA-MB-231
Sequence (Q96KQ7 whole entry): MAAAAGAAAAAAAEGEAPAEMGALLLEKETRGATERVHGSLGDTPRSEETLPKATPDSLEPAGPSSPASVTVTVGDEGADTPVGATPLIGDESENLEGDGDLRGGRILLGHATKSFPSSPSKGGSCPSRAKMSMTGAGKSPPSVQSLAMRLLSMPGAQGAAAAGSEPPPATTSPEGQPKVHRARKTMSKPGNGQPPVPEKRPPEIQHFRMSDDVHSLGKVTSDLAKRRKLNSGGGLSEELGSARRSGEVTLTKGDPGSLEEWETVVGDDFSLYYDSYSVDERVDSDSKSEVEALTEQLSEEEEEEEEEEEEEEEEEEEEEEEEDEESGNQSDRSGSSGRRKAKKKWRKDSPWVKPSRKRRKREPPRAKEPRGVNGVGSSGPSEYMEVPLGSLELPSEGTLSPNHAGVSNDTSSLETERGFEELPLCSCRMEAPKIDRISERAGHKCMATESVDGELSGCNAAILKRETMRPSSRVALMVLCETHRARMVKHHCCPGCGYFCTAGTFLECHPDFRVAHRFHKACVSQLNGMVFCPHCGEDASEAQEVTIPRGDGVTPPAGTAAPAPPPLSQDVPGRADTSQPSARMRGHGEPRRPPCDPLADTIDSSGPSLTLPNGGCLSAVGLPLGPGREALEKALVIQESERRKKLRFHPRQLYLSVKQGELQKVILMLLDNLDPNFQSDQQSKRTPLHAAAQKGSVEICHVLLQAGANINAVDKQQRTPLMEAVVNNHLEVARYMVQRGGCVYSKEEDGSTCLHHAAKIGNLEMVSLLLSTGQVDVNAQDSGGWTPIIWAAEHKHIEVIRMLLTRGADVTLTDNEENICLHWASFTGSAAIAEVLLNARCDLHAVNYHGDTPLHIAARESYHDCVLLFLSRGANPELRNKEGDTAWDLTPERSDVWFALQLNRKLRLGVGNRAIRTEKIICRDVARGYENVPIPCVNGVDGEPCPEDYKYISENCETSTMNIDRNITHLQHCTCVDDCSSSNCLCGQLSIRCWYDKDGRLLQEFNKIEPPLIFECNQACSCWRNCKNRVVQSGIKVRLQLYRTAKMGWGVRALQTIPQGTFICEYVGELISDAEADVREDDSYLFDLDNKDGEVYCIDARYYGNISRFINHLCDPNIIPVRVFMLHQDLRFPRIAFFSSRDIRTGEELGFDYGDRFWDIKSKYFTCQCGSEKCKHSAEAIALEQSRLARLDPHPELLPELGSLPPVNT
Test: MDA-MB-231 H3K9me2 in-cell Western assay (EHMT2 ICW)
Assay type: cell-based
Conditions: Table VI; read-out: EHMT2 ICW IC50
pIC50: −log10 of the molar value.
parameter: pIC50

Here are 4 compounds together with their reported answers.
> print(dat)
                                   compound   test.result
1  CNc1cc(C)nc(Nc2cc(OCCCN3CCCC3)c3oncc3c2)n1        < 5.00
2  CNc1cc(C)nc(Nc2cc(OCCCN3CCCC3)c3ncnn3c2)n1  5.00 to 6.00
3  CNc1ccnc(Nc2ccc(OC)c(OCCC(C)N3CCC3)c2)n1 (centres unmarked)  5.00 to 6.00
4  COc1cc2c(C)cc(N3CCCCC3)nc2cc1OCCCN1CCCC1  5.00 to 6.00

API: the following record is the query input.
// lookup pIC50 for "CNc1ccnc(Nc2ccc(OC)c(OC[C@@H]3CCN(C4CC4)C3)c2)n1"
> 7.00

* * *

Target: human EHMT2 913-1193 (Homo sapiens)
Construct: recombinant purified human EHMT2 913-1193, Viva; purchased Viva
Sequence (Q96KQ7 913-1193): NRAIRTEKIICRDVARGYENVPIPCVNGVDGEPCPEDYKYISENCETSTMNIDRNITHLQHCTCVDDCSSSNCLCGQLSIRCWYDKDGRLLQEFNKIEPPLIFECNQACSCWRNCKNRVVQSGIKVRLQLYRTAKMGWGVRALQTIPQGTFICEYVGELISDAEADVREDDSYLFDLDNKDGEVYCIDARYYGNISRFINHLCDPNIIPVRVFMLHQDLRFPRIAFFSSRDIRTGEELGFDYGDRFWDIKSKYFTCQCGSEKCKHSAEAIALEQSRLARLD
Experiment: EHMT2 enzyme assay on histone peptide substrate (EHMT2 PEP)
Assay type: biochemical
Conditions: recombinant human EHMT2 913-1193, histone H3 1-15 peptide, balanced conditions; read-out: EHMT2 PEP (IC50 μM)
parameter: IC50

> print(dat)
                                   molecule  parameter  test.result
1     COc1cnc(Nc2cccn3ccnc23)cc1OCCCN1CCCC1       IC50   1 to 10 µM
2  COc1ncc(Nc2nc(C)cc(NCC3CCOCC3)n2)cc1OC[C@@H]1CCN(C2CCC2)C1 [Compound 595]       IC50  0.1 to 1 µM
3                     CNc1ccnc(NC2CCNCC2)n1       IC50      > 10 µM
4  CNc1cc(C)nc(Nc2ccc(OC)c(OCC3CN(C(C)C)C3)c2)n1 [Compound 575]       IC50   1 to 10 µM
5  COc1cnc(Nc2cccc3[nH]ncc23)cc1OCCCN1CCCC1       IC50   1 to 10 µM

// lookup IC50 for COc1cnc(Nc2nc(C)cc3[nH]ccc23)cc1OC[C@H]1CCN(C2CC2)C1 [Compound 494a]
0.1 to 1 µM

* * *

Target: EHMT2 (Homo sapiens, UniProt Q96KQ7)
Construct: host or cells: MDA-MB-231
Assay: MDA-MB-231 H3K9me2 in-cell Western assay (EHMT2 ICW)
Assay type: cell-based
Settings: Table III; MDA-MB-231 H3K9me2 in-cell Western; read-out: EHMT2 ICW (IC50 μM)
Quick reference: IC50 of the listed items.

Here are 5 compounds together with their reported answers.
> print(dat)
                                   compound  parameter  test.result
1  CNc1cc(C#N)nc(Nc2ccc(OC)c(OCCCN3CCCC3)c2)n1       IC50      > 10 µM
2         CCNC(=O)c1cc(Nc2nccc(NC)n2)ccc1Cl       IC50      > 10 µM
3  COc1ccc(Nc2nccc(NCC3CCOCC3)n2)cc1NCCCN1CCCC1       IC50   1 to 10 µM
4  CNc1ccnc(Nc2ccc(C3CC3)c(OCCCN3CCCC3)c2)n1       IC50   1 to 10 µM
5  COc1cnc(Nc2nccc3[nH]ccc23)cc1OCCCN1CCCC1       IC50  0.1 to 1 µM

// lookup IC50 for "COc1ccc(Nc2cccc3cn(C)nc23)cc1OCCCN1CCCC1"
> 10 µM

How about this compound: CNc1ccnc(Nc2cccc(N3CCC(N)C3)c2)n1 (stereo not drawn) [Compound 297]
> 10 µM

How about this compound: "CNc1ccnc(Nc2ccc(OC)c(OCCCN3CCC3)c2)n1"
0.1 to 1 µM

How about this compound: "COc1ccc(Nc2nccc(Nc3cccc(F)c3)n2)cc1OCCCN1CCCC1"
1 to 10 µM

* * *

Target: human EHMT2 913-1193 (Homo sapiens)
Construct: recombinant purified human EHMT2 913-1193, Viva; purchased Viva
Assay: EHMT2 enzyme assay on histone peptide substrate (EHMT2 PEP)
Type: biochemical
Conditions: Table III; read-out: EHMT2 PEP (IC50 μM)
Quick reference: IC50 of the listed items.

Item CNc1ccnc(Nc2ccc(OC)c(OCCCN3CCC(C)C3)c2)n1 (stereo not shown) with human EHMT2 913-1193 (Homo sapiens) - IC50?
1 to 10 µM

How about this compound: "CNc1cc(C)nc(Nc2ccc(OC)c(OCC3CN(CC4CC4)C3)c2)n1"
0.1 to 1 µM

How about this compound: "CNc1ccnc(Nc2ccc(OC)c(OCc3cn(C4CC4)nn3)c2)n1"
> 10 µM

How about this compound: "CNCc1cnc(Nc2ccc(OC)c(OCCCN3CCCC3)c2)nc1"
> 10 µM

How about this compound: "CNc1cc(C)nc(Nc2cnc(OC)c(OCCCN3CCCC3)c2)n1"
< 0.1 µM

How about this compound: "CNc1cc(C)nc(Nc2ccc(OC)c(OCC3CN(C)C3)c2)n1"
< 0.1 µM

How about this compound: CNc1ccnc(Nc2cccc(N3CCC(N)C3)c2)n1 (stereo not shown) [Compound 400]
1 to 10 µM

* * *

Biological target: UniProt:Q9H9B1
Sequence (Q9H9B1 1-1298): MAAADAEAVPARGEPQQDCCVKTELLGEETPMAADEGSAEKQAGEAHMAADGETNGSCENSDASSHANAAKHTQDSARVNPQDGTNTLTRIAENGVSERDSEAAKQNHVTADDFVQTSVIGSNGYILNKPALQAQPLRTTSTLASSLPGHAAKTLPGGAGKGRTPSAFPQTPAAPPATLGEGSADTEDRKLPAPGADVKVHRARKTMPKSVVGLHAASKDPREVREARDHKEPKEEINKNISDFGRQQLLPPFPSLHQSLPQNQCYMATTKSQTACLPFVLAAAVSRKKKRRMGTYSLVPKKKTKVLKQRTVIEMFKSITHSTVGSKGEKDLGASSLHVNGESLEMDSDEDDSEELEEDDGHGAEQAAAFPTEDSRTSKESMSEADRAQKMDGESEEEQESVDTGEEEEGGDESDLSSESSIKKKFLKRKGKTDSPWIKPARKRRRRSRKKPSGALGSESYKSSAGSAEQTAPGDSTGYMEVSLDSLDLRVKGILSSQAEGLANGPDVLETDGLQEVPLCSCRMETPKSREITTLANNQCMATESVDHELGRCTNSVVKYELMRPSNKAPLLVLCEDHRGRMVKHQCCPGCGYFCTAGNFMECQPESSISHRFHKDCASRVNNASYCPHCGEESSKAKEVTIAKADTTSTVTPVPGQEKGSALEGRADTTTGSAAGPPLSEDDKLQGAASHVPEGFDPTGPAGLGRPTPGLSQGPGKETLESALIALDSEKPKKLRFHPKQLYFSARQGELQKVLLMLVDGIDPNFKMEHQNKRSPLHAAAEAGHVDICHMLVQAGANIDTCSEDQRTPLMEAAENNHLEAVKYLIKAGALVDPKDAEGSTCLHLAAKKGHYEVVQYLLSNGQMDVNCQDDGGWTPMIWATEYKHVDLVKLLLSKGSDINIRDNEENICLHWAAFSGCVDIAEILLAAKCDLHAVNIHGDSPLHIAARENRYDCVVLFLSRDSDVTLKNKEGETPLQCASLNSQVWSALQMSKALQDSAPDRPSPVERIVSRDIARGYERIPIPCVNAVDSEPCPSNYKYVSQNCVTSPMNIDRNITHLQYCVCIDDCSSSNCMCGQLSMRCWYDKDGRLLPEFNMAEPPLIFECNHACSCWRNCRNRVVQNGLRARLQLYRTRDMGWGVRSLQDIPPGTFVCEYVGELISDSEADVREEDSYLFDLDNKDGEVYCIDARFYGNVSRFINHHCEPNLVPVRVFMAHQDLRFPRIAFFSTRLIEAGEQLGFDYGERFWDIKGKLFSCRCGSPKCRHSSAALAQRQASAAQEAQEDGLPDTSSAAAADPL
Experiment: EHMT1 enzyme assay on peptide substrate (EHMT1 PEP)
Assay type: biochemical
Settings: read-out: EHMT1 PEP (IC50 μM)
Quick reference: IC50 of the listed items.

> print(dat)
                                    compound  parameter  test.result
 1  CNc1ccnc(Nc2ccc(OC)c(OC[C@@H]3CN(C)C[C@@H]3C)c2)n1       IC50  0.1 to 1 µM
 2                  CNc1ccnc(NC2(C)CCNCC2)n1       IC50      > 10 µM
 3  COc1ncc(Nc2nc(C)cc(NCC3CCOCC3)n2)cc1OC[C@@H]1CCN(C2CCC2)C1 [Compound 594]       IC50     < 0.1 µM
 4     C/C=C/C(=O)Nc1ccc(OC)c(OCCCN2CCCC2)c1       IC50      > 10 µM
 5  CNc1cc(C)nc(Nc2cnc(C3CC3)c(OCCCN3CCCC3)c2)n1       IC50   1 to 10 µM
 6  CNc1nc(C2CCN(C(C)=O)CC2)c2cc(OC)c(OCCCN3CCCC3)cc2n1       IC50   1 to 10 µM
 7  CNc1cc(C(C)C)nc(Nc2ccc(OC)c(OCCCN3CCCC3)c2)n1       IC50     < 0.1 µM
 8  CNc1cc(C)nc(Nc2ccc(OC)c(OCCCN(C)C3CC3)c2)n1       IC50     < 0.1 µM
 9  CNc1cc(C)nc(Nc2cc(Cl)c(OC)c(OCCCN3CCCC3)c2)n1       IC50  0.1 to 1 µM
10  CN1CCC(COc2cnc(NC3CCNCC3)nc2)C1 (stereo not drawn)       IC50      > 10 µM

// lookup IC50 for "COc1ccc(Nc2nccc3[nH]ncc23)cc1OCCCN1CCCC1"
> 10 µM

How about this compound: COc1ccc(NC2CCCNC2)cc1OCCCN1CCCC1 (stereo not drawn)
1 to 10 µM

How about this compound: "COc1cnc(Nc2nc(C)cc3[nH]c(C)cc23)cc1OCCCN1CCCC1"
< 0.1 µM

How about this compound: "CNc1cc(C)nc(Nc2ccc(OC)c(OCC3CN(C4CC4)C3)c2)n1"
< 0.1 µM
